target: Recombinant GMPPNP-loaded KRAS G12C (KRAS-G12C(ON), active form) (Homo sapiens, UniProt P01116, G12C); experiment: KRAS G12C RAF Disruption Assay (HTRF); format: biochemical; conditions: GMPPNP-loaded KRAS G12C 5 nM, GST-RAF1 RBD 9 nM, values in nM, read-out: KRASG12C RAF Disruption Assay (IC50)
Sequence (P01116 1-188 isoform P01116-2 G12C): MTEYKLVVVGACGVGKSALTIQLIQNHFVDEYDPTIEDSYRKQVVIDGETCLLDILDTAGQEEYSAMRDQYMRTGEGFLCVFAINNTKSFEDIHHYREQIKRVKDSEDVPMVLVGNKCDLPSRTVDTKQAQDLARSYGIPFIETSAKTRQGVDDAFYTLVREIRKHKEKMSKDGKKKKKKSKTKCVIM
Some compounds, each annotated with its measured IC50.
Respond with the bare value in nM.

Please review the following examples before continuing.
>>> print(df.to_string())
                                smiles_code  measured_value
0  Cc1cc(N)nc(-c2c(Cl)cc3c(N4CC[C@@H]5CC[C@H](C4)N5C(=O)/C(F)=C/c4nccs4)nc(OC[C@]45CCC[C@H]4N(C)CCC5)nc3c2F)c1C(F)(F)F            7900
1  Cc1ccc2[nH]ncc2c1-c1ccc2c(N3CCN(C(=O)/C(F)=C/c4ncccn4)[C@@H](CC#N)C3)nc(OC[C@@H]3CCCN3C)nc2c1F             450

Kindly consider the entry below.
Query: Returns the measured IC50 for the input compound. Input: "Cc1cc(N)nc(-c2c(Cl)cc3c(N4C[C@H]5CC[C@@H]4[C@@H]5NC(=O)/C(F)=C/c4ccccn4)nc(OC[C@]45CCCN4C[C@H](F)C5)nc3c2F)c1C(F)(F)F"
Reply: 48
